Recorded Number of deaths values for a group of compounds are listed next.
- Tested on: BALB/C mouse
- assay explanation: MTD (maximum tolerated dose) acute toxicity in mice
- Type: in vivo
- experimental setup: intravenous, 10 mice per group
Form field (numeric): enter value without unit.

IN: Would you mind telling me what Number of deaths value was observed for CC(NC(=O)C(NC(=O)[C@H](O)[C@H](O)[C@@H](O[C@@H]1O[C@H](CO)[C@H](O)[C@H](O)[C@H]1O)[C@H](O)CO)C(C)C)C(=O)NC(CC(N)=O)C(=O)Nc1ccc(COC(=O)N(C)CCNC(=O)c2cc(Oc3ccc(NC(=O)Nc4ccc(Cl)c(C(F)(F)F)c4)c(F)c3)ccn2)cc1 (stereo partly shown) [Compound S8, Lacto-VAN-PABC-compound b] ?
OUT: 2

New cases:
IN: Need Number of deaths of CC(NC(=O)C(C)NC(=O)[C@H](O)[C@H](O)[C@@H](O[C@@H]1O[C@H](CO)[C@H](O)[C@H](O)[C@H]1O)[C@H](O)CO)C(=O)NC(CC(N)=O)C(=O)Nc1ccc(COC(=O)Nc2nccc(-c3sc(C(C)(C)C)nc3-c3cccc(NS(=O)(=O)c4c(F)cccc4F)c3F)n2)cc1 (stereo partly shown) [Compound S4] , thanks.
OUT: 2

IN: Input C[C@H](NC(=O)[C@@H](NC(=O)[C@H](O)[C@@H](O)[C@H](O[C@@H]1O[C@H](CO)[C@H](O)[C@H](O)[C@H]1O)[C@H](O)CO)[C@@H](C)O)C(=O)N[C@@H](CC(N)=O)C(=O)Nc1ccc(COC(=O)Nc2nccc(-c3sc(C(C)(C)C)nc3-c3cccc(NS(=O)(=O)c4c(F)cccc4F)c3F)n2)cc1 [Compound S16]
OUT: 2

IN: Now consider COc1cccc2c1C(=O)c1c(O)c3c(c(O)c1C2=O)C[C@](O)(C(=O)CO)CC3OC1C[C@H](NC(=O)OCc2ccc(NC(=O)C(CC(N)=O)NC(=O)C(C)NC(=O)C(NC(=O)[C@H](O)[C@H](O)[C@@H](O[C@@H]3O[C@H](CO)[C@H](O)[C@H](O)[C@H]3O)[C@H](O)CO)C(C)C)cc2)[C@H](O)[C@H](C)O1 (stereo partly shown) [Compound S9] .
OUT: 2

These data points were gathered from patent US11078232B2.
